Ref: paper PMC6631349

Biological target: UGT1A3 (Homo sapiens, UniProt P35503)
Sequence (P35503 29-534): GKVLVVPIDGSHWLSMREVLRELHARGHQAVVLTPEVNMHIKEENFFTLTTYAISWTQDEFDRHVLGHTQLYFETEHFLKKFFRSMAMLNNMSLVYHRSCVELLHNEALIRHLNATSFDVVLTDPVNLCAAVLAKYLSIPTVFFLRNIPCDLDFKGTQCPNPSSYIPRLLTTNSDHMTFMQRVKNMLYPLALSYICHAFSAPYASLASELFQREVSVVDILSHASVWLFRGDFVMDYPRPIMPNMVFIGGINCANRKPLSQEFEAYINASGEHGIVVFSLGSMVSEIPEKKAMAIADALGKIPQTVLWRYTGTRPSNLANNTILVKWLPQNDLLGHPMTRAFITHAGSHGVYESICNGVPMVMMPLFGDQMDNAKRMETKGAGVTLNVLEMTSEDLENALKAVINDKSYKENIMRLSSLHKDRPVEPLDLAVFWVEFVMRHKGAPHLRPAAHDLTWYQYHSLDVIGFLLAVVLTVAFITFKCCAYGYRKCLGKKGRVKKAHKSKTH
Assay: UGT1A3 supersomes-catalyzed 4-MU glucuronidation inhibition
Conditions: 50 μM PC components; recombinant human UGT; mean of triplicate
PROPERTY: residual activity 1A3 (%)
The response must be a number in % with no trailing unit.

CC/C=C\C/C=C\C/C=C\C/C=C\C/C=C\C/C=C\CCC(=O)O[C@H](COC(=O)CCCCCCCCCCCCCCCCC)COP(=O)([O-])OCC[N+](C)(C)C = 90.0
CCCCCCCCCCCCCCCCC(=O)OC[C@H](COP(=O)([O-])OCC[N+](C)(C)C)OC(=O)CCCCCCCCCCCCCCCC = 81.4

Next molecule, please.
// assay UGT1A3 (Homo sapiens, UniProt P35503), entry `CCCCCCCCCCCCCCC(=O)OC[C@H](COP(=O)([O-])OCC[N+](C)(C)C)OC(=O)CCCCCCCCCCCCCC` , residual activity 1A3 value = 103.4

====

Target: UGT1A3 (Homo sapiens)
Test: UGT1A3 supersomes-catalyzed 4-MU glucuronidation inhibition
Conditions: 50 μM PC components; recombinant human UGT; mean of triplicate
Each item that follows carries a reported residual activity 1A3.
The response must be a number in % with no trailing unit.

// worked examples, residual activity 1A3 included
CCCCCCCCCC(=O)OC[C@H](COP(=O)([O-])OCC[N+](C)(C)C)OC(=O)CCCCCCCCC [PC 10:0, 10:0] = 107.4
CCCCCCCCCCCCCCCCCC(=O)OC[C@H](COP(=O)([O-])OCC[N+](C)(C)C)OC(=O)CCCCCCCCCCCCCCCCC [PC 18:0, 18:0] = 83.7
CCCCCCCCCCCCCC(=O)OC[C@H](COP(=O)([O-])OCC[N+](C)(C)C)OC(=O)CCCCCCCCCCCCC [PC 14:0, 14:0] = 97.3

// sample CCCCCCCCCCCCC(=O)OC[C@H](COP(=O)([O-])OCC[N+](C)(C)C)OC(=O)CCCCCCCCCCCC [PC 13:0, 13:0] , its residual activity 1A3 was 110.7

// sample CCCCCCCCCCCCCCCCCCCCCCC(=O)OC[C@H](COP(=O)([O-])OCC[N+](C)(C)C)OC(=O)CCCCCCCCCCCCCCCCCCCCCC [PC 23:0, 23:0] , its residual activity 1A3 was 80.4

// sample CCCCCCCCCCCCCCCCCCCC(=O)OC[C@H](COP(=O)([O-])OCC[N+](C)(C)C)OC(=O)CCCCCCCCCCCCCCCCCCC [PC 20:0, 20:0] , its residual activity 1A3 was 90.8
